Biological target: FGF receptor/BKL complex
Sequence (Q86Z14 whole entry, one chain of several): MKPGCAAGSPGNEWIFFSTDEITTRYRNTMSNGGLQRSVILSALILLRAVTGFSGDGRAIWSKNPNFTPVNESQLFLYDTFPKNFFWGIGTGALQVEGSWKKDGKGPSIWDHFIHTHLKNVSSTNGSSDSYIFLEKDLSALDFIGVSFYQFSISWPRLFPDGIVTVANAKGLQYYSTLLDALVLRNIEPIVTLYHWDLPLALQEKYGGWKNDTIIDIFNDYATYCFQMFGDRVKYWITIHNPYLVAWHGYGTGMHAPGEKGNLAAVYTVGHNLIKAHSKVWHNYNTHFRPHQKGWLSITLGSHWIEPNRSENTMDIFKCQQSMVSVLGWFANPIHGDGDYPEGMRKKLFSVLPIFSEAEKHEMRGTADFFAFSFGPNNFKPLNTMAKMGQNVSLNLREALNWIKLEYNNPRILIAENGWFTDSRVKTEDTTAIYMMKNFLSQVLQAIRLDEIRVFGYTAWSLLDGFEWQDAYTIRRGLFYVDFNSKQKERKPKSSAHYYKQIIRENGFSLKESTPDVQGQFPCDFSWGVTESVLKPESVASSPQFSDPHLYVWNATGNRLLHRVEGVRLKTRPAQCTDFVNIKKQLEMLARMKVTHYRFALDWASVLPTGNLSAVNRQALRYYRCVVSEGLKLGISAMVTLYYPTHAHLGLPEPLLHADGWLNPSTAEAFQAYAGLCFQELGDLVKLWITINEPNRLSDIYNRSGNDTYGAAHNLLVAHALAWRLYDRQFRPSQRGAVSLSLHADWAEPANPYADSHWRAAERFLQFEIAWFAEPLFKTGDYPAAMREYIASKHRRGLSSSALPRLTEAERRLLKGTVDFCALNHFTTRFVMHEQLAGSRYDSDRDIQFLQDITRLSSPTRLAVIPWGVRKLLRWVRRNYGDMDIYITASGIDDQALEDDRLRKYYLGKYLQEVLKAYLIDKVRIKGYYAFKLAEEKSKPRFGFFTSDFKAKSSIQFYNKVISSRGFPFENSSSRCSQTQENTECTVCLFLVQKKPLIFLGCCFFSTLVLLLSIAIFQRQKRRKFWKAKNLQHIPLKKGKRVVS
Test: FGF receptor potency in an Erk phosphorylation assay in HEK293 overexpressing human BKL
Format: cell-based
Details: HEK293/BKL cells, pERK after 12 minutes, absence of HSA; read-out: EC50
pEC50: −log10 of the molar value.
REPORTED_ENDPOINT: pEC50

molecule="S{Beta-180}-2-aminoethylsulfanyl-Ala[Gln121, Leu168, Cys180, des181]FGF21 (protein, N-terminal Ala; cysteamine disulfide on Cys180) AHPIPDSSPLLQFGGQVRQRYLYTDDAQQTEAHLEIREDGTVGGAADQSPESLLQLKALKPGVIQILGVKTSRFLCQRPDGALYGSLHFDPEACSFRELLLEDGYNVYQSEAHGLPLHLPGQKSPHRDPAPRGPARFLPLPGLPPALPEPPGILAPQPPDVGSSDPLSLVGPSQGRSPSYC" reported_endpoint=pEC50 value_observed=7.70
molecule="18-[[(1S)-4-[2-[2-[2-[2-[2-[2-(2-acetamidoethylamino)-2-oxo-ethoxy]ethoxy]ethylamino]-2-oxo-ethoxy]ethoxy]ethylamino]-1-carboxy-4-oxo-butyl]amino]-18-oxo-octadecanoic … (protein) HPIPDSSPLLQFGGQVRQRYLYTDDAQQTEAHLEIREDGTVGGAADQSPESLLQLKALKPGVIQILGVKTSRFLCQRPDGALYGSLHFDPEACSFRELLLEDGYNVYQSEAHGLPLHLPGQKSPHRDPAPRGPARFLPLPGLPPALPEPPGILAPQPPDVGSSDPLSLVGPSQCRSPSYAS" reported_endpoint=pEC50 value_observed=9.00
